meta.source: patent US20240182536A1

Target: T1, human IL-18 binding protein (human, UniProt O95998 31-194)
T1 sequence (looked up): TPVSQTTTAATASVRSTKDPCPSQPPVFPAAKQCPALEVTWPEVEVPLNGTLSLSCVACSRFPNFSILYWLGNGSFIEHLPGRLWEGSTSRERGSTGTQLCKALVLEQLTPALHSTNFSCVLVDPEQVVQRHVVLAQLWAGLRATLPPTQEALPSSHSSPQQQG
Assay: cell-based or functional assay
# reported HEK-blue EC50 (pM) + 1000 nM BP; entries follow
Write it as a number; the unit pM goes unstated.

// known answers, use as guide
human IL-18 variant G3V/K53S/M60K (ligand) YFVKLESKLSVIRNLNDQVLFIDQGNRPLFEDMTDSDMRDNAPRTIFIISMYSDSQPRGKAVTISVKSEKISTLSSENKIISFKEMNPPDNIKDTKSDIIFFQRSVPGHDNKMQFESSSYEGYFLASEKERDLFKLILKKEDELGDRSIMFTVQNED: 2.61
human IL-18 variant G3V/E6K/K53S/M60K (ligand) YFVKLKSKLSVIRNLNDQVLFIDQGNRPLFEDMTDSDMRDNAPRTIFIISMYSDSQPRGKAVTISVKSEKISTLSSENKIISFKEMNPPDNIKDTKSDIIFFQRSVPGHDNKMQFESSSYEGYFLASEKERDLFKLILKKEDELGDRSIMFTVQNED: 0.095

Next item in the queue.
Query string: Given the entry human IL-18 variant G3V/E6K/K53A (ligand) YFVKLKSKLSVIRNLNDQVLFIDQGNRPLFEDMTDSDMRDNAPRTIFIISMYADSQPRGMAVTISVKSEKISTLSSENKIISFKEMNPPDNIKDTKSDIIFFQRSVPGHDNKMQFESSSYEGYFLASEKERDLFKLILKKEDELGDRSIMFTVQNED , report its measured HEK-blue EC50 (pM) + 1000 nM BP.
Result string: 1.26
